B1: TPR 5TU (parent)
chain: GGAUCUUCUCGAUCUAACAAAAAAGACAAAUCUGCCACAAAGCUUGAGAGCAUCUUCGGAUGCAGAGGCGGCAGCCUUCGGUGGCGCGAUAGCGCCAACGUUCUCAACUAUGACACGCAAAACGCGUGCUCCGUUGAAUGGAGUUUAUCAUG

- Variants of: B1
- method description: polymerase ribozyme fitness, log enrichment relative to wild type (log ratio); higher = more active; in vitro selection for triplet polymerase activity
Variants at the floor of the assay were thinned out.
The label depends only on polymerase ribozyme fitness (log ratio): Yes if it is at least -3, No if it is smaller.

mutant_label="U102A A113C" cat=No
mutant_label="A26U C93U G117U A137C" cat=No
mutant_label="U44A G50C" cat=No
mutant_label="A98G U101C G143U C149U" cat=No
mutant_label="U9G C14G A110C C123U G141A" cat=No

Would you kindly look at the next entry?
Exercise: Dear colleague, could you confirm whether G42C A49U C63U has polymerase ribozyme fitness (log ratio) at or above -3?
Key: No
